biological target: EGFR del19/T790M/C797S (Homo sapiens, UniProt P00533, C797S/DEL746-750/T790M); experiment: Biochemical EGFR kinase assay (Lance Ultra TR-FRET), triple mutant del19/T790M/C797S; settings: IC50 del19/T790M/C797S, 100 μM ATP
Sequence (P00533 with tags, fused parts or gaps DEL746-750/T790M/C797S): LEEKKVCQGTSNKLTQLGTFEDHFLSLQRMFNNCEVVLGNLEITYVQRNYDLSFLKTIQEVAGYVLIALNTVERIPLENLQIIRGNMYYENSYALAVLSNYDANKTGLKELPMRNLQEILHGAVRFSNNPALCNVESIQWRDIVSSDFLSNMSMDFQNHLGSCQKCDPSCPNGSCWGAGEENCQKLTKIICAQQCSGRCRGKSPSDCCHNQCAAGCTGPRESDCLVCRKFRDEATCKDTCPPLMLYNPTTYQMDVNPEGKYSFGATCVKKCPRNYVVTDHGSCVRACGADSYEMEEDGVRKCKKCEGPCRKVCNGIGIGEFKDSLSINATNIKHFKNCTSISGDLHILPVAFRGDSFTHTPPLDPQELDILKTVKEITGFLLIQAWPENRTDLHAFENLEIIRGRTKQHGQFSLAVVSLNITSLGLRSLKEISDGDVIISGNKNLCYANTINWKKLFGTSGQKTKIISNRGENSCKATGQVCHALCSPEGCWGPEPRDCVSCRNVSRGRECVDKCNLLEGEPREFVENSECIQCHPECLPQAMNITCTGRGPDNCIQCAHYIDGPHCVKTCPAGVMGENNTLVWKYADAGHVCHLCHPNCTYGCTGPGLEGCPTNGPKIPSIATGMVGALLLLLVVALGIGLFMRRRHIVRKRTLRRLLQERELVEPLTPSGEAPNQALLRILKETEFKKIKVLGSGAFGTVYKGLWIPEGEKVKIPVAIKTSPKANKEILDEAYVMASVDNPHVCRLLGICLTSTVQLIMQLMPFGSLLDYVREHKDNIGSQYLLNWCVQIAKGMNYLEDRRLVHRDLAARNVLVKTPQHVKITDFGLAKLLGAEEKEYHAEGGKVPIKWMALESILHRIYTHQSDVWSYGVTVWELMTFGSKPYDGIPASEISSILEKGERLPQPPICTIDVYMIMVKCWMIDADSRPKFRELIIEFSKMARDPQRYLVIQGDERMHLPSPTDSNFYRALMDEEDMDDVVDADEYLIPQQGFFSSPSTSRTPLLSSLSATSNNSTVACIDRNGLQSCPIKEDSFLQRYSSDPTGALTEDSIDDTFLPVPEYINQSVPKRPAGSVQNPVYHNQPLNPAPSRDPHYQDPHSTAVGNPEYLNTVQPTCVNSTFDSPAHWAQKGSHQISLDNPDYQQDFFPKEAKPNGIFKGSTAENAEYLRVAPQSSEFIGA
parameter-measured: pIC50
// pIC50: -log10(molar conc.)

compound: CN(C)CC1CCC(Nc2cc(Nc3ccnc(-c4cnn(S(=O)(=O)C5CC5)c4)n3)ncc2-c2ccc(C(C)(O)C(F)(F)F)cn2)CC1 (centres unmarked)
result-number: 9.52
//
compound: C[C@]1(O)CC[C@@H](Nc2cc(Nc3ccnc(-c4cnn(S(=O)(=O)C5CC5)c4)n3)ncc2-c2cccc(CC(F)(F)F)n2)CC1
result-number: 8.47
//
compound: CN(C)C[C@H]1CC[C@@H](Nc2cc(Nc3ccnc(-c4cnn(S(=O)(=O)C5CC5)c4)n3)ncc2-c2ccc(CC(F)(F)F)cn2)CC1
result-number: 8.85
//
compound: CC(F)(F)c1ccc(-c2cnc(Nc3ccnc(-c4cnn(S(=O)(=O)C5CC5)c4)n3)cc2N[C@H]2CC[C@@](C)(O)CC2)nc1
result-number: 8.59

Could you now consider this next compound?
Enquiry: Returns the measured pIC50 for the input compound. Input: "CC(C)(O)[C@H]1CC[C@@H](Nc2cc(Nc3ccnc(-c4cnn(S(=O)(=O)C5CC5)c4)n3)ncc2-c2ccc(S(C)(=O)=O)cn2)CC1"
Return: 9.10

----------
target: EGFR del19/C797S (Homo sapiens, UniProt P00533, C797S/DEL746-750); assay: Biochemical EGFR kinase assay (Lance Ultra TR-FRET), double mutant del19/C797S; details: IC50 del19/C797S, 100 μM ATP
Sequence (P00533 with tags, fused parts or gaps DEL746-750/C797S): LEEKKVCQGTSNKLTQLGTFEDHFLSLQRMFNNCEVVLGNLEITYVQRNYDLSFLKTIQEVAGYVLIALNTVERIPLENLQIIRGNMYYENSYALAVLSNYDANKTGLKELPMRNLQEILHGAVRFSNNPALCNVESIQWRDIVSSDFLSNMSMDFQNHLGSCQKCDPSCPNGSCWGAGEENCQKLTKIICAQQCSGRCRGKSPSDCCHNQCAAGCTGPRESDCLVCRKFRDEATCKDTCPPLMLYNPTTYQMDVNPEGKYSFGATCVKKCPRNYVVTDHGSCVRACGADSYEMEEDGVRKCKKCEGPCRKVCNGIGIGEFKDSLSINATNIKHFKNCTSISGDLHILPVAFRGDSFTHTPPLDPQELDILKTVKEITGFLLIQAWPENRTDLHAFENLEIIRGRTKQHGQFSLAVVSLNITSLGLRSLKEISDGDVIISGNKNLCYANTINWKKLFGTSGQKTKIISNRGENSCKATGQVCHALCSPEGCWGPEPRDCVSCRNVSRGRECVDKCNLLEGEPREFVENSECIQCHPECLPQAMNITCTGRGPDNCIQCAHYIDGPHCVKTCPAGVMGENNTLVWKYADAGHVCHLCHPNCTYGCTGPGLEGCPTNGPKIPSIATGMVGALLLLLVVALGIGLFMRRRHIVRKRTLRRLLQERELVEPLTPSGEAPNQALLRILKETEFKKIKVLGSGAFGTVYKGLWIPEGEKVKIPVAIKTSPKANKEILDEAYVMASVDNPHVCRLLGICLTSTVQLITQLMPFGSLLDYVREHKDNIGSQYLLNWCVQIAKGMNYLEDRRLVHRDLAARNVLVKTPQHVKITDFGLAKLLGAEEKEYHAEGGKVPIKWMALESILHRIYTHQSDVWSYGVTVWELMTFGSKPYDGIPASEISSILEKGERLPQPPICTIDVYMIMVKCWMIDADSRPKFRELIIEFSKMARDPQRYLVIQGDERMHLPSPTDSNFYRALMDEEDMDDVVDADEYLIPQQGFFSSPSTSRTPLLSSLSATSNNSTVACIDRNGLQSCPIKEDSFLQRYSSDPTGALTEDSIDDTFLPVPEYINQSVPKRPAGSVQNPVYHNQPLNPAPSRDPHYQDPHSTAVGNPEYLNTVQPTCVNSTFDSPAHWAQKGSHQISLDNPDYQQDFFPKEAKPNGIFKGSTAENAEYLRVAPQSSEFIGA
Catalogue of compounds with associated pIC50
Please keep in mind that pIC50 is minus log10 of the molar concentration; only the number is needed.

Reference set, count: 6
substance-smiles: CN1CCN(C(=O)c2ccc(-c3cnc(Nc4ccnc(-c5cnn(S(=O)(=O)C6CC6)c5)n4)cc3N[C@H]3CC[C@@H](CO)CC3)nc2)CC1
result-number: 9.70

substance-smiles: CN(C)C[C@H]1CC[C@@H](Nc2cc(Nc3ccnc(-c4cnn(S(=O)(=O)C5CC5)c4)n3)ncc2-c2ccc(C(C)(C)O)cn2)CC1
result-number: 9.52

substance-smiles: CN1CCN(S(=O)(=O)c2ccc(-c3cnc(Nc4ccnc(-c5cnn(S(=O)(=O)C6CC6)c5)n4)cc3N[C@H]3CC[C@@](C)(O)CC3)nc2)CC1
result-number: 8.74

substance-smiles: CN1CCC(Oc2cccc(-c3cnc(Nc4ccnc(-c5cnn(S(=O)(=O)C6CC6)c5)n4)cc3N[C@H]3CC[C@@](C)(O)CC3)n2)CC1
result-number: 9.52

substance-smiles: C[C@]1(O)CC[C@@H](Nc2cc(Nc3ccnc(-c4cnn(S(=O)(=O)C5CC5)c4)n3)ncc2-c2cnc(F)cn2)CC1
result-number: 7.69

substance-smiles: CN(C)CCNc1ccnc(-c2cnc(Nc3ccnc(-c4cnn(S(=O)(=O)C5CC5)c4)n3)cc2N[C@H]2CC[C@@](C)(O)CC2)c1
result-number: 9.15

Enquiry: GET /values?readout=pIC50&item= "C[C@]1(O)CC[C@@H](Nc2nccc(-c3cnc(Nc4ccnc(-c5cnn(S(=O)(=O)C6CC6)c5)n4)cc3N[C@H]3CC[C@@](C)(O)CC3)n2)CC1"
Return: 8.19

Enquiry: Request the reported pIC50 associated with "CN1CCN(S(=O)(=O)c2ccc(-c3cnc(Nc4ccnc(-c5cnn(S(=O)(=O)C6CC6)c5)n4)cc3N[C@H]3CC[C@@H](CO)CC3)nc2)CC1"
Return: 8.77

Enquiry: Which pIC50 value is on record for "O=S(=O)(C1CC1)n1cc(-c2nccc(Nc3cc(N[C@H]4CC[C@@H](CO)CC4)c(-c4ccc(OC(F)(F)F)cn4)cn3)n2)cn1" ?
Return: 7.79

Enquiry: Which pIC50 value belongs to "C[C@]1(O)CC[C@@H](Nc2cc(Nc3ccnc(-c4cnn(S(=O)(=O)C5CC5)c4)n3)ncc2-c2cccc(F)n2)CC1" ?
Return: 9.15

Enquiry: Given the entry "CN(C)C[C@H]1CC[C@@H](Nc2cc(Nc3ccnc(-c4cnn(S(=O)(=O)C5CC5)c4)n3)ncc2-c2ccc(OC(F)(F)F)cn2)CC1" , report its measured pIC50.
Return: 8.96

Enquiry: Give the measured pIC50 of "CC(C)(O)[C@H]1CC[C@@H](Nc2cc(Nc3ccnc(-c4cnn(S(=O)(=O)C5CC5)c4)n3)ncc2-c2ccc(CC(F)(F)F)cn2)CC1" .
Return: 7.52

Enquiry: Quick one: pIC50 for "C[C@]1(O)CC[C@@H](Nc2cc(Nc3ccnc(-c4cnn(S(=O)(=O)C5CC5)c4)n3)ncc2-c2ccc(CC(F)(F)F)cn2)CC1" ?
Return: 8.15

Enquiry: Report pIC50 for "C[C@]1(O)CC[C@@H](Nc2cc(Nc3ccnc(-c4cnn(S(=O)(=O)C5CC5)c4)n3)ncc2-c2cc(NCCC(F)(F)F)ccn2)CC1" please.
Return: 8.41

Reference source for all entries: patent US12258328B2
